For each of the compounds below, state its half-life.
- ASSAY_PROCEDURE: IV pharmacokinetics in Sprague Dawley rats
- Type: in vivo
- ASSAY_SETUP: Sprague-Dawley, rat, in vivo, iv, 2 mg/kg, normal saline
Write it as a number; the unit h goes unstated.

Annotate the compound CC(C)(C)OC(=O)N1CCCC12CCCNC2=O (single isomer, unassigned) with its measured half-life.
0.42

# return recorded half-life for entry O=C1NCCCC12CCCN2 (centres unmarked) [EU-2, 1,7-diazaspiro[4.5]decan-6-one]
1.61

Complete the entry with half-life for O=C1N(Cc2ccc(F)cc2)CC=CCC12CCCN2 (single isomer, unassigned)
0.54

Identify half-life associated with the compound CN1CC=CCC2(CCCN2Cc2ccccc2)C1=O (single isomer, unassigned)
0.66

Give a short answer stating reported half-life for NC(=O)CN1CCCC12CC=CCNC2=O (single isomer, unassigned) .
1.77

Return the recorded half-life value; entry: CC(C)C(=O)N1CCC2(CCCN2C(=O)C(C)C)C1=O (single isomer, unassigned)
0.18

Give a short answer stating reported half-life for O=C1NCCCC[C@]12CCCN2 [AU-1, (S)-1,7-diazaspiro[4.6]undecan-6-one] .
1.41

Look up half-life of O=C1NCCCCC12CCCCN2 (single isomer, unassigned) [AZ, 1,8-diazaspiro[5.6]dodecan-7-one] and report it.
4.25
